Origin of measurements: ChEMBL document CHEMBL1201862

system: UO-31; test: NCI tumour cell line growth inhibition, 48 h
Active and inactive are the calls of the source. No stated cut-off is given here; in the data, active = GI50 up to about 1.1 µM and inactive = higher.
Choose one outcome from this list and give only that: active, inactive

Name the outcome recorded for CCN1CC(C)Cn2c(=O)[nH]c3cc(Br)cc1c32 (stereo not drawn) in the assay.
inactive

Name the outcome recorded for CC(=N)OC1CC2CCC1(C)C2(C)C (stereo not drawn) in the assay.
inactive

Name the outcome recorded for C=CCO/N=C(\OC(=O)c1ccc([N+](=O)[O-])cc1)c1ccccc1 in the assay.
inactive

Name the outcome recorded for NC(=O)C(=Cn1c(=S)[nH]c2ccc([N+](=O)[O-])cc21)C(N)=O in the assay.
inactive

Name the outcome recorded for CCOC(=O)c1c(CN2CCCC2)n(-c2ccccc2)c2cc(Br)c(O)cc12 in the assay.
inactive

Name the outcome recorded for CC(C)(C(=O)NN)c1ccccc1 in the assay.
inactive

Name the outcome recorded for Cc1cc(S(=O)(=O)Nc2nc(N)nc(N3N=CCC3C)n2)c(SCC(=O)O)cc1Cl (stereo not drawn) in the assay.
active

Name the outcome recorded for CN1CC[C@]2(c3cccc(O)c3)CC(=O)/C(=C/c3ccccc3)[C@@H]1C2.[O-][Cl+3]([O-])([O-])O in the assay.
inactive

Name the outcome recorded for CCN1C(NN)=NS(=O)(=O)c2ccccc21 in the assay.
inactive

Name the outcome recorded for COc1ccc(O[C@H](CO)C[C@@H]2COC(C)(C)O2)cc1 in the assay.
inactive

Name the outcome recorded for COC(=O)C(C(=O)C(N)=O)c1csc(-n2nc(-c3ccccc3)cc2-c2ccccc2)n1 (stereo not drawn) in the assay.
inactive

Name the outcome recorded for S=C(Nc1ccc(Cl)cc1)SC1CCCCC1 in the assay.
inactive

Name the outcome recorded for CC1Oc2cc3c(-c4c(O)cc(O)c5c(O)c6c(cc45)OC(C)C(C)C6=O)c(O)cc(O)c3c(O)c2C(=O)C1C (stereo not drawn) in the assay.
active

Name the outcome recorded for COc1ccc2c(c1)OCC1Cc3cc4c(cc3OC21)OCO4 (stereo not drawn) in the assay.
inactive

Name the outcome recorded for O=C(CC(=O)N1N=C(c2ccccc2)C(/N=N/c2ccc(Cl)cc2)C1=O)Nc1ccccc1Cl (stereo not drawn) in the assay.
inactive

Name the outcome recorded for CCOC(=O)Nc1cc2c(c(N)n1)N=C(c1ccc(OC)cc1)CN2 in the assay.
active

Name the outcome recorded for COC(=O)c1cn(CCCC(=O)O)nn1 in the assay.
inactive

Name the outcome recorded for CCOC(=O)c1ccc(N2C(=O)Cc3ccccc3C2=O)cc1 in the assay.
inactive

Name the outcome recorded for COC(CN1C(=O)c2cccc3cccc(c23)C1=O)OC in the assay.
inactive

Name the outcome recorded for CC1=NN(c2nc(N)nc(/C(C#N)=C/c3ccncc3)n2)C(C)(C)C1 in the assay.
inactive

Name the outcome recorded for Cc1ccc(NC(=O)CC2SC(=N)NC2=O)cc1C (stereo not drawn) in the assay.
inactive

Name the outcome recorded for CCOC(=O)c1c(-c2ccccc2)[nH]c2ccc(Cl)cc2c1=O in the assay.
inactive

Name the outcome recorded for COC(=O)c1c(C)nc(C)c(N=O)c1-c1ccccc1C(F)(F)F in the assay.
inactive

Name the outcome recorded for COC(=O)/C(C#N)=C/c1cc(C(C)(C)C)c(O)c(C(C)(C)C)c1 in the assay.
inactive

Name the outcome recorded for COC(=O)c1ccccc1NC(=O)C(=O)Cc1nc2c3c(ccc2nc1O)C(=O)c1ccccc1C3=O in the assay.
inactive

Name the outcome recorded for Cc1ccc(C(=O)Oc2ccc(/C=C3\CCC/C(=C\c4ccc(OC(=O)c5ccc(C)cc5)cc4)C3=O)cc2)cc1 in the assay.
inactive

Name the outcome recorded for CC1CC[C@@]23CCC4(C)[C@@](C=CC5[C@@]6(C)CCC(=O)C(C)(C)C6CC[C@]54C)(OC2=O)[C@@H]3[C@H]1C (stereo partly drawn) in the assay.
inactive

Name the outcome recorded for Oc1[nH]c(Nc2ccc(F)c(Cl)c2)nc2ncnc1-2 in the assay.
inactive
